system: lymphocytic leukemia P388; experiment: Lymphocytic Leukemia P388 Test; format: in vivo, BDF1 mice; settings: dose 0.75 mg/kg intraperitoneally on days 1, 5 and 9; BDF1 mice
For each of the compounds below, state its Median Survival.
Numeric answer plus unit only.

Param readout= Median Survival; system= lymphocytic leukemia P388; entry= CC(C)C[C@H](N)C(=O)NCCNc1ccc(NCCNC(=O)[C@@H](N)CC(C)C)c2c1C(=O)c1c(O)ccc(O)c1C2=O.Cl.Cl (stereo in doubt) ; returns value. 25.5 days

Report Median Survival for `C[C@H](NC(=O)[C@H](CO)NC(=O)[C@@H](N)CC(=O)OC(C)(C)C)C(=O)NCCNc1ccc(NCCNC(=O)[C@H](C)NC(=O)[C@H](CO)NC(=O)[C@@H](N)CC(=O)OC(C)(C)C)c2c1C(=O)c1c(O)ccc(O)c1C2=O` tested on lymphocytic leukemia P388. 18.0 days

API: value(readout= Median Survival, system= lymphocytic leukemia P388, query= `C[C@H](NC(=O)[C@H](CO)NC(=O)OC(C)(C)C)C(=O)NCCNc1ccc(NCCNC(=O)[C@H](C)NC(=O)[C@H](CO)NC(=O)OC(C)(C)C)c2c1C(=O)c1c(O)ccc(O)c1C2=O` ) 18.5 days

====

Give T/C × 100 (%) for every item shown.
test system: lymphocytic leukemia P388; assay: Lymphocytic Leukemia P388 Test; assay type: in vivo, BDF1 mice; conditions: dose 0.75 mg/kg intraperitoneally on days 1, 5 and 9; ratio of survival time treated/control
Could you give me the number in %? Just the number is fine.

Look at this molecule and give its reported T/C × 100 (%). C[C@H](NC(=O)OCc1ccccc1)C(=O)NCC(=O)NCCNc1ccc(NCCNC(=O)CNC(=O)[C@H](C)NC(=O)OCc2ccccc2)c2c1C(=O)c1c(O)ccc(O)c1C2=O [Example 55] 114

Given the molecule Br.Br.NCC(=O)N[C@@H](Cc1ccccc1)C(=O)NCCNc1ccc(NCCNC(=O)[C@H](Cc2ccccc2)NC(=O)CN)c2c1C(=O)c1c(O)ccc(O)c1C2=O (relative stereo) [Example 54] , what is its reported T/C × 100 (%)? 185

Param item = C[C@H](NC(=O)[C@H](C)NC(=O)[C@H](CC(=O)OC(C)(C)C)NC(=O)OCC1c2ccccc2-c2ccccc21)C(=O)NCCNc1ccc(NCCNC(=O)[C@H](C)NC(=O)[C@H](C)NC(=O)[C@H](CC(=O)OC(C)(C)C)NC(=O)OCC2c3ccccc3-c3ccccc32)c2c1C(=O)c1c(O)ccc(O)c1C2=O [Example 79] ; retrieve measured T/C × 100 (%). 168

I am curious: what T/C × 100 (%) value has been reported for CC(C)C[C@H](NC(=O)OCc1ccccc1)C(=O)N[C@@H](C)C(=O)N[C@@H](CC(C)C)C(=O)NCCNc1ccc(NCCNC(=O)[C@H](CC(C)C)NC(=O)[C@H](C)NC(=O)[C@H](CC(C)C)NC(=O)OCc2ccccc2)c2c1C(=O)c1c(O)ccc(O)c1C2=O [Example 51] ? 182

What does the data say about its T/C × 100 (%)? Entry: C[C@@H](N)C(=O)NCCNc1ccc(NCCNC(=O)[C@@H](C)N)c2c1C(=O)c1c(O)ccc(O)c1C2=O.Cl.Cl (stereo in doubt) [Example 25] 173

Which measured T/C × 100 (%) value corresponds to CC(C)C[C@@H](N)C(=O)NCCNc1ccc(NCCNC(=O)[C@H](N)CC(C)C)c2c1C(=O)c1c(O)ccc(O)c1C2=O.Cl.Cl (stereo in doubt) [Example 20] ? 171

Requested read-out: T/C × 100 (%). Entry: CC(C)C[C@@H](N)C(=O)N(CCO)CCNc1ccc(NCCN(CCO)C(=O)[C@H](N)CC(C)C)c2c1C(=O)c1c(O)ccc(O)c1C2=O.O=C(O)C(F)(F)F.O=C(O)C(F)(F)F.O=C(O)C(F)(F)F (relative stereo) [Example 29] 109

Please report the recorded T/C × 100 (%) for O=C(O)C(F)(F)F.O=C(O)C(F)(F)F.O=C(O)CC[C@H](NC(=O)OCc1ccccc1)C(=O)NCCNc1ccc(NCCNC(=O)[C@H](CCC(=O)O)NC(=O)OCc2ccccc2)c2c1C(=O)c1c(O)ccc(O)c1C2=O (relative stereo) [Example 48] . 117

What does the data say about its T/C × 100 (%)? Entry: Br.Br.Br.Br.NCCCC[C@H](N)C(=O)NCCNc1ccc(NCCNC(=O)[C@@H](N)CCCCN)c2c1C(=O)c1c(O)ccc(O)c1C2=O (relative stereo) [Example 33] 230

====

System: lymphocytic leukemia P388
Experiment: Lymphocytic Leukemia P388 Test
Type: in vivo, BDF1 mice
Conditions: dose 0.75 mg/kg intraperitoneally on days 1, 5 and 9; BDF1 mice
Experimental: The animals used were BDF1 mice, all of one sex, weighing a minimum of 18 g and all within a 3 g weight range. There were 5 or 6 mice per test group. The tumor transplant was by intraperitoneal injection of 0.5 ml of dilute ascitic fluid containing 10^6 cells of lymphocytic leukemia P388. […] The animals were weighed and survivors recorded on a regular basis for 60 days. The median survival time and the ratio of survival time for treated (T)/control (C) animals were calculated.
Task for the reader: assign each of the following compounds its reported Median Survival.
# number only, unit days dropped from output

Return reported Median Survival; argument: CC(C)(C)OC(=O)CC[C@H](NC(=O)OCc1ccccc1)C(=O)NCCNc1ccc(NCCNC(=O)[C@H](CCC(=O)OC(C)(C)C)NC(=O)OCc2ccccc2)c2c1C(=O)c1c(O)ccc(O)c1C2=O (relative stereo) [Example 47] 15.0

Suppose we examine the compound CC(C)C[C@H](NC(=O)CNC(=O)CNC(=O)OCc1ccccc1)C(=O)NCCNc1ccc(NCCNC(=O)[C@H](CC(C)C)NC(=O)CNC(=O)CNC(=O)OCc2ccccc2)c2c1C(=O)c1c(O)ccc(O)c1C2=O [Example 69] ; what Median Survival value has been reported? 17.0

# get_value(readout='Median Survival', item= CC(C)(C)OC(=O)N[C@@H](CO)C(=O)NCCNc1ccc(NCCNC(=O)[C@H](CO)NC(=O)OC(C)(C)C)c2c1C(=O)c1c(O)ccc(O)c1C2=O (relative stereo) [Example 14] ) 13.5

I would be grateful if you could share the reported Median Survival for Br.Br.Br.Br.C[C@H](NC(=O)[C@H](CO)NC(=O)[C@@H](N)CCCNC(=N)N)C(=O)NCCNc1ccc(NCCNC(=O)[C@H](C)NC(=O)[C@H](CO)NC(=O)[C@@H](N)CCCNC(=N)N)c2c1C(=O)c1c(O)ccc(O)c1C2=O [Example 94] . 21.5

Param item = Br.Br.Br.Br.NCCCC[C@H](N)C(=O)NCCNc1ccc(NCCNC(=O)[C@@H](N)CCCCN)c2c1C(=O)c1c(O)ccc(O)c1C2=O (relative stereo) [Example 33] ; retrieve measured Median Survival. 23.0

====

Could you please report measured Median Survival for the items listed next?
system: lymphocytic leukemia P388; assay: Lymphocytic Leukemia P388 Test; type: in vivo, BDF1 mice; conditions: dose 1.5 mg/kg intraperitoneally on days 1, 5 and 9; BDF1 mice
Returns: string containing the numeric result and its unit.

Recorded Median Survival for Br.Br.N[C@@H](CS)C(=O)NCCNc1ccc(NCCNC(=O)[C@@H](N)CS)c2c1C(=O)c1c(O)ccc(O)c1C2=O (relative stereo) , please? 23.0 days

Quick one: Median Survival of `CC(C)C[C@H](NC(=O)[C@H](C)N)C(=O)NCCNc1ccc(NCCNC(=O)[C@H](CC(C)C)NC(=O)[C@H](C)N)c2c1C(=O)c1c(O)ccc(O)c1C2=O.O=C(O)C(F)(F)F.O=C(O)C(F)(F)F` ? 20.0 days

Sample `C[C@H](NC(=O)[C@H](CO)NC(=O)[C@H](CC(=O)OC(C)(C)C)NC(=O)OCC1c2ccccc2-c2ccccc21)C(=O)NCCNc1ccc(NCCNC(=O)[C@H](C)NC(=O)[C@H](CO)NC(=O)[C@H](CC(=O)OC(C)(C)C)NC(=O)OCC2c3ccccc3-c3ccccc32)c2c1C(=O)c1c(O)ccc(O)c1C2=O` — what was its Median Survival? 20.0 days

Could you tell me which Median Survival is on file for N[C@@H](CC(=O)O)C(=O)NCCNc1ccc(NCCNC(=O)[C@@H](N)CC(=O)O)c2c1C(=O)c1c(O)ccc(O)c1C2=O.O=C(O)C(F)(F)F.O=C(O)C(F)(F)F (relative stereo) ? 19.5 days

Given CSCC[C@H](N)C(=O)NCCNc1ccc(NCCNC(=O)[C@@H](N)CCSC)c2c1C(=O)c1c(O)ccc(O)c1C2=O.Cl.Cl (relative stereo) , state its recorded Median Survival. 20.5 days

// returns reported Median Survival for input CC(C)(C)OC(=O)C[C@H](NC(=O)OCC1c2ccccc2-c2ccccc21)C(=O)NCCNc1ccc(NCCNC(=O)[C@H](CC(=O)OC(C)(C)C)NC(=O)OCC2c3ccccc3-c3ccccc32)c2c1C(=O)c1c(O)ccc(O)c1C2=O (relative stereo) 15.0 days

Report Median Survival for `Cl.Cl.NCC(=O)NCCNc1ccc(NCCNC(=O)CN)c2c1C(=O)c1c(O)ccc(O)c1C2=O` please. 24.0 days

Would you mind telling me what Median Survival value was observed for `Br.Br.NCC(=O)NCC(=O)NCCNc1ccc(NCCNC(=O)CNC(=O)CN)c2c1C(=O)c1c(O)ccc(O)c1C2=O` ? 21.5 days

What measured Median Survival goes with `C[C@H](NC(=O)[C@H](C)NC(=O)[C@H](CC(=O)OC(C)(C)C)NC(=O)OCC1c2ccccc2-c2ccccc21)C(=O)NCCNc1ccc(NCCNC(=O)[C@H](C)NC(=O)[C@H](C)NC(=O)[C@H](CC(=O)OC(C)(C)C)NC(=O)OCC2c3ccccc3-c3ccccc32)c2c1C(=O)c1c(O)ccc(O)c1C2=O` ? 18.0 days

Which value of Median Survival has been reported for `Br.Br.CC(C)C[C@H](NC(=O)[C@@H]1CCCN1C(=O)CN)C(=O)NCC(=O)N1CCC[C@H]1C(=O)NCCNc1ccc(NCCNC(=O)[C@@H]2CCCN2C(=O)CNC(=O)[C@H](CC(C)C)NC(=O)[C@@H]2CCCN2C(=O)CN)c2c1C(=O)c1c(O)ccc(O)c1C2=O` in the records? 22.0 days

What value of Median Survival has been reported for the following molecule? CC(C)(C)OC(=O)CC[C@H](NC(=O)OCc1ccccc1)C(=O)NCCNc1ccc(NCCNC(=O)[C@H](CCC(=O)OC(C)(C)C)NC(=O)OCc2ccccc2)c2c1C(=O)c1c(O)ccc(O)c1C2=O (relative stereo) 17.0 days

Param item = `C[C@H](NC(=O)OCc1ccccc1)C(=O)NCC(=O)NCCNc1ccc(NCCNC(=O)CNC(=O)[C@H](C)NC(=O)OCc2ccccc2)c2c1C(=O)c1c(O)ccc(O)c1C2=O` ; retrieve measured Median Survival. 13.0 days

Recorded Median Survival for C[C@@H](N)C(=O)NCCNc1ccc(NCCNC(=O)[C@@H](C)N)c2c1C(=O)c1c(O)ccc(O)c1C2=O.Cl.Cl (stereo in doubt) , please? 20.0 days

# input molecule: Br.Br.Br.Br.NCCCC[C@H](N)C(=O)NCCNc1ccc(NCCNC(=O)[C@@H](N)CCCCN)c2c1C(=O)c1c(O)ccc(O)c1C2=O (relative stereo) ; wanted: its Median Survival 33.0 days

What does the data say about its Median Survival? Entry: `C[C@H](NC(=O)OC(C)(C)C)C(=O)N[C@@H](C)C(=O)N(CCNc1ccc(NCCN(C(=O)[C@H](C)NC(=O)[C@H](C)NC(=O)OC(C)(C)C)[C@@H](C)C(=O)O)c2c1C(=O)c1c(O)ccc(O)c1C2=O)[C@@H](C)C(=O)O` 18.0 days

Could you share which Median Survival value was measured for C[C@@H](O)[C@H](N)C(=O)NCCNc1ccc(NCCNC(=O)[C@@H](N)[C@@H](C)O)c2c1C(=O)c1c(O)ccc(O)c1C2=O.O=C(O)C(F)(F)F.O=C(O)C(F)(F)F (relative stereo) ? 22.5 days

Please report the recorded Median Survival for `Br.Br.C[C@H](NCCNc1ccc(NCCN[C@@H](C)C(=O)N[C@@H](CCCNC(=N)N)C(=O)OC(C)(C)C)c2c1C(=O)c1c(O)ccc(O)c1C2=O)C(=O)N[C@@H](CCCNC(=N)N)C(=O)OC(C)(C)C` . 19.0 days

Can you look up the measured Median Survival of `Br.Br.C[C@H](NC(=O)[C@H](CO)NC(=O)[C@H](CCCNC(=N)N)NC(=O)OCc1ccccc1)C(=O)NCCNc1ccc(NCCNC(=O)[C@H](C)NC(=O)[C@H](CO)NC(=O)[C@H](CCCNC(=N)N)NC(=O)OCc2ccccc2)c2c1C(=O)c1c(O)ccc(O)c1C2=O` for me? 22.5 days
